- Test system: UACC-257 melanoma
- measurement description: NCI-60 one-dose screen, 48 h
- recorded conditions: 10 µM
The panel holds about 83,000 compounds, 20% with a hit somewhere; the sample as a whole holds those more often. Activity calls are given as the source filed them. The calls were made as follows: active = growth percent below 10; inactive = the rest.
Labels: active, inactive

1) O=C(CC(c1ccccc1)N1CCOCC1)c1ccccc1 (configuration not stated) ... inactive
2) CCOC(=O)N1C/C(=C/c2ccc(OC)cc2)C(=O)/C(=C/c2ccc(OC)cc2)C1 ... inactive
3) Nc1c(C(=O)Nc2cccc3ccccc23)sc2nc3c(cc12)C(=O)CCC3 ... inactive
4) CN(C)CCCn1c(=O)c2ccccc2c2cnc3[nH]ccc3c21 ... active
5) CCN1CCC(CCOC)(CN2c3ccccc3Sc3ccc(Cl)cc32)C1 (configuration not stated) ... inactive
6) C#Cc1ccc(-n2c(/C=C/c3ccc(O)c(OC)c3)nc3ncccc3c2=O)cc1 ... inactive
7) CC1(C)OC2=C(CC1Br)C(=O)C(=O)c1ccccc12 (configuration not stated) ... active

----------
- Test system: HCT-15 colon
- measurement description: NCI-60 one-dose screen, 48 h (100 = growth as untreated, 0 = no growth, -100 = all killed)
- recorded conditions: 10 µM
About 83,000 compounds went through this panel and 20% of them were active in at least one assay; those are over-represented in the sample as a whole.
growth vs 40%: at or above is 1.0, below is 0.0.

1. N#Cc1cc(-c2cc3ccccc3o2)oc1N ... 0.0
2. COC(=O)C(C(C[N+](=O)[O-])c1ccccc1)=P(c1ccccc1)(c1ccccc1)c1ccccc1 (stereo not given) ... 1.0
3. NC(=O)c1ccc(-c2cccc3c(=O)nc(N4CCOCC4)oc23)cc1 ... 1.0
4. CCN(CC)CCC(CNc1c(C)cnc2cc(Cl)ccc12)c1ccc(Cl)c(Cl)c1 (stereo not given) ... 0.0
5. O=C1NC(=O)N(Cc2ccccc2)CC1Br (stereo not given) ... 1.0
6. Cn1c(N)c(N=Nc2ccc(S(=O)(=O)Nc3nccs3)cc2)c(=O)n(C)c1=O ... 1.0
7. CC(C)=CCc1ccc(O)c(=O)cc1C(C)C ... 0.0
8. CC1(C)Cc2c(sc3ncn4nc(-c5ccc(O)cc5)nc4c23)CO1 ... 1.0
9. N=C(N)c1ccc(-c2ccc(-c3cccs3)o2)cc1 ... 0.0

----------
- Test system: HCT-15 colon
- measurement description: NCI-60 one-dose screen, 48 h (100 = growth as untreated, 0 = no growth, -100 = all killed)
- recorded conditions: 10 µM
This is part of a sample that, as a whole, favours compounds with a hit. Of some 83,000 tested, about 20% had one in any assay.
// reported growth for each item listed
metric name: growth (%)

1. CC(=O)O[C@]1(C)CC[C@H]2[C@H](CNCCc3ccc(Cl)cc3)C(=O)O[C@@H]2C2=C(C)C(=O)C[C@H]21 ... 88.4
2. C/C(=N\Nc1nc2ccccc2s1)c1ccncn1 ... 18.6
3. CN1CC[C@@H](c2c(O)cc(O)c3c(=O)cc(-c4ccccc4Cl)oc23)[C@@H](O)C1 ... -26.7
4. CCCCOC(=O)Oc1ccc(C(=O)Oc2ccc(OCC)cc2)cc1 ... 102
5. COc1ccc(-c2cc(-c3ccc(N(C)C)cc3)c(C#N)c(N3CCCC3)n2)cc1 ... 71.4
6. COc1ccc(Nc2nc3ccc(NC(=O)NC4CCCCC4)cc3[nH]c2=O)cc1 ... 83.2
7. O=C(Nc1nc2ccccc2s1)Nc1ccc([N+](=O)[O-])cc1Cl ... 87.2
8. O=C(Nc1ccc(CO)cc1)c1ccccc1Nc1ccnc(C(F)(F)F)c1 ... 103

----------
- System: HS 578T breast
- measurement description: NCI-60 one-dose screen, 48 h
- recorded conditions: 10 µM
Compounds without any hit were thinned out: in the full panel of roughly 83,000, 20% have a hit. Activity calls are given as the source filed them. The calls were made as follows: active = growth percent below 10; inactive = the rest.
Labels: true = active, false = inactive

1) COc1ccc(-c2cc(-c3cccc(NS(C)(=O)=O)c3)nc(N)c2C#N)cc1 ... true
2) Cc1ccc(-c2nc(/C=C3/C(=O)N(C)c4ccc(F)cc43)c3ccccn23)cc1 ... false
3) O=C(Nc1cccc(-n2cc(-c3ccncc3)c(-c3ccc(O)c(Cl)c3)n2)c1)Nc1cccc(C(F)(F)F)c1 ... true
4) CCN(CC)CCCC(C)Nc1ccc2ccc(Cl)cc2n1 (configuration not stated) ... false
5) Cc1cc(C)c2c(n1)sc1c(Nc3ccc(Cl)cc3)ncnc12 ... false
6) CCOC(=O)N1C/C(=C/c2ccc(Cl)cc2)C(=O)/C(=C/c2ccc(Cl)cc2)C1 ... false
7) O=C(N/N=C/c1ccccc1)C(Oc1ccccc1)c1ccccc1 (configuration not stated) ... false
8) COc1ccc(-c2nn(-c3cccc(NC(=O)Nc4cccc(C(F)(F)F)c4)c3)cc2-c2ccncc2)cc1Cl ... false
9) ClCCOCCn1cnc2c(Cl)nc(Cl)nc21 ... false
10) CN(C)N=Nc1nn(C(=O)Nc2ccc(Cc3ccccc3)cc2)c2ccccc12 ... false
11) Cc1nc2c(c(=O)[nH]1)OCN(Cc1ccccc1)C2 ... false
12) Cc1nc2ccc(CN(C)c3ccc(C(=O)N[C@@H](CCC(=O)O)C(=O)O)s3)cc2c(=O)[nH]1 ... false

----------
- System: LOX IMVI melanoma
- measurement description: NCI-60 one-dose screen, 48 h
- recorded conditions: 10 µM
Compounds without any hit were thinned out: in the full panel of roughly 83,000, 20% have a hit. Calls of active or inactive are those of the source. The calls were made as follows: active = growth percent below 10; inactive = the rest.
Labels: true (1) for active, false (0) for inactive

1) COc1cc(OC)cc(-c2cncn2-c2ccc(-c3nc4cc(OC)cc(OC)c4s3)cc2)c1 ... false (0)
2) O=C(Nc1ccccc1)Nc1cccc(-n2cc(-c3ccncc3)c(-c3ccc(O)c(Cl)c3)n2)c1 ... false (0)
3) O=C1/C(=C\c2ccc(F)cc2)CN(C(=O)c2ccccc2)C/C1=C\c1ccc(F)cc1 ... true (1)
4) COc1ccc2c(c1)O/C(=C\c1ccc([N+](=O)[O-])s1)C2=O ... false (0)
5) COc1ccc(/C(=C2\O[C@@H]([C@H]3COC(C)(C)O3)[C@H]3OC(C)(C)O[C@@H]23)c2cc(OC)c(OC)c(OC)c2)cc1O ... false (0)
6) C#Cc1ccc(-n2c(/C=C/c3cc(OC)cc(OC)c3)nc3ncccc3c2=O)cc1 ... false (0)
7) COc1ccc(OC)c2c1C(=O)CC2C (centres undefined) ... false (0)
8) CN(C)c1ccc(/C=C/C=N/NC(=O)c2cc(O)c(O)c(O)c2)cc1 ... false (0)
9) O=C(O)CC(Cl)C(Cl)CC(=O)O (centres undefined) ... false (0)

----------
- Test system: HS 578T breast
- measurement description: NCI-60 one-dose screen, 48 h (100 = growth as untreated, 0 = no growth, -100 = all killed)
- recorded conditions: 10 µM
About 83,000 compounds went through this panel and 20% of them were active in at least one assay; those are over-represented in the sample as a whole.
metric name: growth (%)

1. CS(=O)(=O)Nc1ccc(Nc2c3ccccc3nc3cc(N)ccc23)cc1 ... 23.7
2. Cc1cccc2c(NCCN(C)C)c3cccc(C(=O)NCCN(C)C)c3nc12 ... 10.2
3. C#Cc1ccc(-n2c(/C=C/c3ccc4ccccc4n3)nc3ncccc3c2=O)cc1 ... 11
4. COc1ccc(-c2nc3ccccn3c2-c2nnc(-c3cc(OC)c(OC)c(OC)c3)o2)cc1 ... 82.2
5. CC1(C)CCC(=NNC(N)=S)CC1 ... 103
6. COc1cc(CNCCCCCCN2C(=O)c3cccc4cccc(c34)C2=O)ccc1O ... 106
7. CC(=O)N(C)c1ccc(Nc2ccc(Nc3ccc(N(C)C(C)=O)cc3)c3c2C(=O)c2ccccc2C3=O)cc1 ... 58.3
8. Fc1ccc(-c2nnc(-c3c(-c4ccc(F)cc4)nc4ccccn34)o2)cc1 ... 92.4
9. C#Cc1ccc(-n2c(/C=C/c3ccc(Cl)c(F)c3)nc3ncccc3c2=O)cc1 ... 13.8

----------
- Test system: NCI/ADR-RES ovarian
- measurement description: NCI-60 one-dose screen, 48 h
- recorded conditions: 10 µM
This is part of a sample that, as a whole, favours compounds with a hit. Of some 83,000 tested, about 20% had one in any assay. Activity calls are given as the source filed them. The calls were made as follows: active = growth percent below 10; inactive = the rest.
Labels: active, inactive

1. CCCN(CCC)CCC(O)c1cc2c(c3ccccc13)CCCC2 (stereo not drawn) ... inactive
2. Nc1ccccc1NC(=O)CCCCC(=O)Nc1ccc2c(c1)/C(=C/c1ccc[nH]1)C(=O)N2 ... inactive
3. Cn1c([N+](=O)[O-])cnc1/C=C1\Oc2cc(Cl)ccc2C1=O ... active

----------
// reported growth for each item listed
- Test system: MALME-3M melanoma
- measurement description: NCI-60 one-dose screen, 48 h (100 = growth as untreated, 0 = no growth, -100 = all killed)
- recorded conditions: 10 µM
About 83,000 compounds went through this panel and 20% of them were active in at least one assay; those are over-represented in the sample as a whole.
metric name: growth (%)

1) COc1cc(NC(=O)c2sc3nc4c(cc3c2N)C(O)CCC4)cc(OC)c1 (stereo not given) ... 77.6
2) COc1cc2cc3c(nc2cc1OC)CCN3Cc1ccc(NC(=O)Nc2ccc(F)cc2F)cc1 ... 93.2
3) COc1ccc(/C=C2/CN(CCC#N)C/C(=C\c3ccc(OC)cc3)C2=O)cc1 ... -44.7
4) COc1ccc2c(c1)[n+]([O-])c(C#N)c(NC(=O)c1ccco1)[n+]2[O-] ... 103
5) Nc1nc(-c2ccccc2Cl)cc(-c2ccc(Cl)cc2Cl)n1 ... 86.6

Hello, the source for this data is PubChem BioAssay (NCI), in case you need it.
